Recorded Kd, one value per entry.
Target: XO (Bos taurus, UniProt P80457)
Construct: purchased Roche Diagnostics (Mannheim, Germany)
Sequence (P80457 whole entry): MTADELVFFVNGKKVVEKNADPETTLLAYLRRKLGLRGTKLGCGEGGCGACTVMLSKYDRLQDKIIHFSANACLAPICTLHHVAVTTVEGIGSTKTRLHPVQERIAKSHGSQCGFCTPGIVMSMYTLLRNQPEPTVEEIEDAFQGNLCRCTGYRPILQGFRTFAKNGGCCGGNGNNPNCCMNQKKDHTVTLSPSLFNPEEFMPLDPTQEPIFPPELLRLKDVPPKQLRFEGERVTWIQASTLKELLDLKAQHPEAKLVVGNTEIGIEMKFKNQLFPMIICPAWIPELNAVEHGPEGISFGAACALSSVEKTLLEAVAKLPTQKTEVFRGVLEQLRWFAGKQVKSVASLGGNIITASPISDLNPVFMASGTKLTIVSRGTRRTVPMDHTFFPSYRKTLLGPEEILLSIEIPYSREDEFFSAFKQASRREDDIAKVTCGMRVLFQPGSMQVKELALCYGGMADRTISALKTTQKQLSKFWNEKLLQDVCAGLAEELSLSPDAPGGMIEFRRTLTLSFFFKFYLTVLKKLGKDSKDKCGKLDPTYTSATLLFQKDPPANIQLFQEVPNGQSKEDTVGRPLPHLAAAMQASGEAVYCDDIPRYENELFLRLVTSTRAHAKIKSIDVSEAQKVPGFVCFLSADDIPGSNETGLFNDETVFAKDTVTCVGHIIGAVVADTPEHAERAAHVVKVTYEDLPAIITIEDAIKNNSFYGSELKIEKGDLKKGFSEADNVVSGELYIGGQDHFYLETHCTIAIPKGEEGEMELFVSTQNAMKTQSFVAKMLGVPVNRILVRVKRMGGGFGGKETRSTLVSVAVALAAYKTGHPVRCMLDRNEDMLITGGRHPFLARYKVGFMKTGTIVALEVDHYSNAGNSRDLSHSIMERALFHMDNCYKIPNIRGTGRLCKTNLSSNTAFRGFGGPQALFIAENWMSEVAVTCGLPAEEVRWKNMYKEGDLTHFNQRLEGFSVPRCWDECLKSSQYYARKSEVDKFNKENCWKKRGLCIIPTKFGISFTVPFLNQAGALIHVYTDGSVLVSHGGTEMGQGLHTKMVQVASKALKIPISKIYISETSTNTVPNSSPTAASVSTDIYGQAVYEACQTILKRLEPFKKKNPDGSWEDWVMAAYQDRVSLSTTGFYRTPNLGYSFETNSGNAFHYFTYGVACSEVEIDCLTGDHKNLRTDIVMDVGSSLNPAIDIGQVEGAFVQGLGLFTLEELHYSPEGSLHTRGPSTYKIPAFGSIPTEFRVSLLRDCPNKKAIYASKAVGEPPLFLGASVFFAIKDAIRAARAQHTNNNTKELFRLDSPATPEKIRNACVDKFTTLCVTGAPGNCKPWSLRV
Test: Fluorescence quenching assay of XO
Assay type: binding, Bovine
Conditions: Modified Stern-Volmer association constant Ka, 310 K, pH 7.5
MEASURED QUANTITY: Kd (µM)

- O=c1cc(-c2ccc(O)cc2)oc2cc(O)cc(O)c12 [Apigenin, apigenin]: 4.3
- COc1cc(CC(=O)O)ccc1O [Homovanillic acid, homovanillic acid]: 4.15
- O=C(O)/C=C/c1ccccc1 [Trans-cinnamic acid, trans-cinnamic acid]: 3.49

====

Recorded Random Coil (%) of XO, one value per entry.
Molecular target: XO (Bos taurus, UniProt P80457)
Construct: purchased Roche Diagnostics (Mannheim, Germany)
Assay: Circular dichroism (CD) analysis of XO secondary structure
Design: species or system Bovine
Settings: molar ratio XO:inhibitor 1:10, pH 7.5 (free XO 15.4)
MEASURED QUANTITY: Random Coil (%) of XO

- O=c1cc(-c2ccc(O)cc2)oc2cc(O)cc(O)c12: 0.0
- O=C(O)/C=C/c1ccccc1 [Trans-cinnamic acid, trans-cinnamic acid]: 22.7
- COc1cc(CC(=O)O)ccc1O: 27.0
- O=c1c(O)c(-c2ccc(O)cc2)oc2cc(O)cc(O)c12: 34.2

Measured values drawn from paper PMC9864848 for this set.
